molecular target: 5-hydroxytryptamine receptor 2A (Homo sapiens); test: Displacement of [3H]ketanserin from recombinant human 5-HT2A receptor expressed in HEK293 cell membranes after 60 mins by scintillation counting method
Sequence (P28223 whole entry): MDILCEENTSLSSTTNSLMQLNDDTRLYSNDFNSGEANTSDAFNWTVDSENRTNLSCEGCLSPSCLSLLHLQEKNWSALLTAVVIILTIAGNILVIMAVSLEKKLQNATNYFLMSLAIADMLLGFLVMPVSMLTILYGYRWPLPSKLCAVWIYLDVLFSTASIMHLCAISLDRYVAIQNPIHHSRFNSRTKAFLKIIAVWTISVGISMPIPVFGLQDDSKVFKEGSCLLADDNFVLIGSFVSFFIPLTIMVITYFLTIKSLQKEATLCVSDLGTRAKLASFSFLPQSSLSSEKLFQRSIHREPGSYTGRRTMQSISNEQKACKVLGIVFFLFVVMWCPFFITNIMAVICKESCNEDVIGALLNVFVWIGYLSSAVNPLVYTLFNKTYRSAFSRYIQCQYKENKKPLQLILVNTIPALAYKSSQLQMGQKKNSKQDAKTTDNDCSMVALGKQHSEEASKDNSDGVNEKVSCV
measured_endpoint: Ki (nM)

Example compounds with recorded Ki:
{"columns": ["compound_string", "Ki / nM"],
 "data": [
  ["O=C(N[C@H]1CC[C@H](CCN2CCN(c3nsc4ccccc34)CC2)CC1)C1CC1", 0.35],
  ["O=C(NCc1ccccc1)N[C@H]1CC[C@H](CCN2CCN(c3nsc4ccccc34)CC2)CC1", 0.91],
  ["CN(C)C(=O)N[C@H]1CC[C@H](CCN2CCN(c3nsc4ccccc34)CC2)CC1", 0.6]
]}

[A] O=S(=O)(N[C@H]1CC[C@H](CCN2CCN(c3nsc4ccccc34)CC2)CC1)c1cccnc1
[B] O=C(Nc1ccccc1)N[C@H]1CC[C@H](CCN2CCN(c3nsc4ccccc34)CC2)CC1
[C] CCOC(=O)N1CCC(CCN2CCN(c3nsc4ccccc34)CC2)CC1
[D] CCCC(=O)N[C@H]1CC[C@H](CCN2CCN(c3nsc4ccccc34)CC2)CC1
q: Arrange these 4 compounds in increasing order of Ki. Give the order by naming the labels one after another as requested.
a: B, D, C, A
(B: 0.21 nM, D: 0.87 nM, C: 3.3 nM, A: 8.1 nM)

Data origin, for the record: ChEMBL document CHEMBL3872208
